# Assayed target: Sodium-dependent serotonin transporter (Rattus norvegicus, UniProt P31652)
# Sequence (P31652 whole entry): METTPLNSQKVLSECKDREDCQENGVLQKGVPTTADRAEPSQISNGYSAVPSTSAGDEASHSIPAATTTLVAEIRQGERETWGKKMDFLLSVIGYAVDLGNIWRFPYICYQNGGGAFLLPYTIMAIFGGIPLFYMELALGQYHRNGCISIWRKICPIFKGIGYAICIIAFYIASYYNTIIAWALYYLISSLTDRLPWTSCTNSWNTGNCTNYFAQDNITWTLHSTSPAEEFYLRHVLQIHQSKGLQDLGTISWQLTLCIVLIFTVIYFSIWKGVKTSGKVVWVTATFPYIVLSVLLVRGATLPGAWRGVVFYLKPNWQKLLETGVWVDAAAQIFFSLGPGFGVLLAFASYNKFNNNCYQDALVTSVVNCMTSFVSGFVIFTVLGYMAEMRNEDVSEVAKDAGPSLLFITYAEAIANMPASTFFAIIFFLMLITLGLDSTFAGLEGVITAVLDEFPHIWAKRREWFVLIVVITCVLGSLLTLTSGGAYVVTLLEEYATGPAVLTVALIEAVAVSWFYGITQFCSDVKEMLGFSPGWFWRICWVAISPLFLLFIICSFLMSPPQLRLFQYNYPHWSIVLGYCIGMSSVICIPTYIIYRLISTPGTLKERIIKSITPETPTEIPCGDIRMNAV
Can you tell me Ki for the items I'm about to list?
One number for each entry, in µM.

Compound: O=C(C[S+]([O-])C(c1ccc(Br)cc1)c1ccc(Br)cc1)NCCCc1ccccc1 (centres undefined)
Assayed target: Sodium-dependent serotonin transporter (Rattus norvegicus, UniProt P31652)
Measured attribute: Ki
Value observed: 0.892
--
Compound: NC(=O)CSC(c1cccc(Cl)c1)c1cccc(Cl)c1
Assayed target: Sodium-dependent serotonin transporter (Rattus norvegicus, UniProt P31652)
Measured attribute: Ki
Value observed: 808
--
Compound: NCC[S+]([O-])C(c1ccccc1)c1ccccc1 (centres undefined)
Assayed target: Sodium-dependent serotonin transporter (Rattus norvegicus, UniProt P31652)
Measured attribute: Ki
Value observed: 3.38

Quick request: Ki for each listed item, please.
1. O=C(CSC(c1ccc(F)cc1)c1ccc(F)cc1)NCC1CC1
2. O=C(CSC(c1ccc(Br)cc1)c1ccc(Br)cc1)NCC1CC1
3. CCCCNCC[S+]([O-])C(c1ccccc1)c1ccccc1 (centres undefined)
4. NCCSC(c1ccccc1)c1ccccc1
5. [O-][S+](CCNCCCc1ccccc1)C(c1ccc(Br)cc1)c1ccc(Br)cc1 (centres undefined)
6. [O-][S+](CCNCCCc1ccccc1)C(c1ccc(F)cc1)c1ccc(F)cc1 (centres undefined)

1: 34; 2: 7.03; 3: 63.6; 4: 0.221; 5: 0.557; 6: 1.28

Record Ki for all entries; do not skip any.
1. CCCNC(=O)CSC(c1ccc(F)cc1)c1ccc(F)cc1
2. CCCNC(=O)CSC(c1ccc(Cl)cc1)c1ccc(Cl)cc1
3. O=C(CSC(c1ccccc1)c1ccccc1)NCC1CC1
4. O=C(CSC(c1ccc(F)cc1)c1ccc(F)cc1)NCCCc1ccccc1
5. CNC(=O)CSC(c1ccccc1)c1ccccc1

[44.2, 10.1, 20.5, 3.5, 656]

====

# Assayed target: Sodium-dependent dopamine transporter (Rattus norvegicus, UniProt P23977)
# Sequence (P23977 whole entry): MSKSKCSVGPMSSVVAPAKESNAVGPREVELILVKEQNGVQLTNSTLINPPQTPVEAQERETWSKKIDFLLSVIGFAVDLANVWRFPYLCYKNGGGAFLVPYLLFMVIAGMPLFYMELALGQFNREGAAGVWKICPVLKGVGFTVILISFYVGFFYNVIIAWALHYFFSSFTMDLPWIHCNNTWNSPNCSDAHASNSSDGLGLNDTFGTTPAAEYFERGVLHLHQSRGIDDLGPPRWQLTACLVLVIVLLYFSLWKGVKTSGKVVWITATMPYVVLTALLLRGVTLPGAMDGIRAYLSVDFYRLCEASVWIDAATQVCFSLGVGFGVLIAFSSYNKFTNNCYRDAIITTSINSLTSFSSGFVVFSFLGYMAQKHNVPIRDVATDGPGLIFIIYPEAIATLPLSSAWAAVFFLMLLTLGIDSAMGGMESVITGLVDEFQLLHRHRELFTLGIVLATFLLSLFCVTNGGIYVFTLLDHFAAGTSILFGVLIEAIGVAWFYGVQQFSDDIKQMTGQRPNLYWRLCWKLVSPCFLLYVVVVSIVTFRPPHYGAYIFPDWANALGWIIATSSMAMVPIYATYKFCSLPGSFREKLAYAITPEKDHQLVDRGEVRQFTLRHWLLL
# Assay text: Displacement of [3H]WIN35,428 from Sprague-Dawley rat brain DAT after 120 mins by liquid scintillation counting analysis
# Format: tissue-based
Give measured log10 of Ki for each item. Keep answers brief.
Annotation: log10 of Ki, µM basis.

These recorded examples may help you get a feel for the data.
Molecule: C=CCNC(=O)CSC(c1ccccc1)c1ccccc1
log10 of Ki: 0.92

Molecule: [O-][S+](CCNCCCc1ccccc1)C(c1ccc(Br)cc1)c1ccc(Br)cc1 (stereo not given)
log10 of Ki: 0.10

Molecule: CNC(=O)C[S+]([O-])C(c1ccccc1)c1ccccc1 (stereo not given)
log10 of Ki: 1.12

Molecule: NC(=O)C[S+]([O-])C(c1cccc(F)c1)c1cccc(F)c1 (stereo not given)
log10 of Ki: 0.77

Switching to the query record.
Name the recorded log10 of Ki for O=C(CSC(c1ccc(Br)cc1)c1ccc(Br)cc1)NCCCc1ccccc1 .
-0.62
